The measurements presented in this section are drawn from patent US20200347144A1.

- system.under.test: T1, mouse 4-1BB protein (extracellular domain) (mouse, UniProt P20334 24-187)
- T1 construct: extracellular domain; also called mouse 4-1BB-his; mouse 4-1BB-hFc protein
- T1 sequence (looked up): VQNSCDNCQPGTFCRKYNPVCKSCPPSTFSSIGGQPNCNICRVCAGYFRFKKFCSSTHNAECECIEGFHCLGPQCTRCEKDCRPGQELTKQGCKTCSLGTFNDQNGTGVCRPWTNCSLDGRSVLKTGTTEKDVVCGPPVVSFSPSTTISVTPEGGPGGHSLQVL
- protocol: ELISA, coated mouse 4-1BB; Ab 0.0006 ug/ml
recorded.metric: OD450 nm (OD450 nm)
State the answer as a number, implicitly in OD450 nm.

Use the examples below as a reference point.
>>> obs_value("113F6C6 (antibody, V domains shown, also called 4-1BB fully human antibody 113F6C6; 113F6F6) VH: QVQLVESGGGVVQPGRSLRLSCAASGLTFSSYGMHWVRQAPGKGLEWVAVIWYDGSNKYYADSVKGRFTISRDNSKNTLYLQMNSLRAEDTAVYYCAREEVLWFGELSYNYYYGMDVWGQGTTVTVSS VL: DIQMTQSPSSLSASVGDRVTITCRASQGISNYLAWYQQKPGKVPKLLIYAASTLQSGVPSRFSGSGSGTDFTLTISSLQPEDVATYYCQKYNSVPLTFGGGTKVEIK")
0.05
>>> obs_value("118F3A2 (antibody, V domains shown) VH: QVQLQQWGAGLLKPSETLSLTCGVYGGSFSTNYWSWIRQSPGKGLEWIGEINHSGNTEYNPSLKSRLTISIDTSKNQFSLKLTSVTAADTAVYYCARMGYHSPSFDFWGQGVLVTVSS VL: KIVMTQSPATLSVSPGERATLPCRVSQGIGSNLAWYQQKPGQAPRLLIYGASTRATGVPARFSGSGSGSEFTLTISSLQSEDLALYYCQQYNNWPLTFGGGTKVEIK")
0.05

Please examine the following record next.
IN: Please look up its OD450 nm: 57B3D10 (antibody, V domains shown, also called 4-1BB fully human antibody 57B3D10) VH: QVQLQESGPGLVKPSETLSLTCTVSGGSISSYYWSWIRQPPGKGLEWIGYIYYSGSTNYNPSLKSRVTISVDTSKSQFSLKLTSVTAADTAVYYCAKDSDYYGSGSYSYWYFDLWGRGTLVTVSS VL: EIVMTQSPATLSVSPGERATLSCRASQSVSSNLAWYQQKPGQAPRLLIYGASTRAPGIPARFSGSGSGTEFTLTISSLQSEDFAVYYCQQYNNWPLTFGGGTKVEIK
OUT: 0.05
